Tested on: SAUR 9218
Assay procedure: MIC Test Method, standard agar dilution
Type: cell-based
Condition label: agar dilution, Mueller Hinton agar, incubated overnight at 35° C.; lowest concentration that inhibits visible growth; read-out: SAUR 9218 MIC
Form field: log10 MIC (one value per entry).
Measurement type: log10 MIC (log10 of the value in mg/L)

INSERT INTO results (compound, target_or_test_system, measurement_type, result) VALUES
  ('N#Cc1ccc(NC(=O)c2cc3cccc(NC(=O)C4CCOC4)c3[nH]2)c(C(=O)O)c1 (stereo not shown)', 'SAUR 9218', 'log10 MIC', 0.30),
  ('N#Cc1ccc(NC(=O)c2cnccn2)c(C(=O)O)c1', 'SAUR 9218', 'log10 MIC', 2.11),
  ('N#Cc1ccc(NC(=O)c2cc(-c3ccccc3C(F)(F)F)on2)c(C(=O)O)c1', 'SAUR 9218', 'log10 MIC', -0.60),
  ('N#Cc1ccc(NC(=O)c2cc3ccccc3o2)c(C(=O)O)c1', 'SAUR 9218', 'log10 MIC', 0.30),
  ('N#Cc1ccc(NC(=O)c2cc3ccccc3n2CCCc2ccccc2)c(C(=O)O)c1', 'SAUR 9218', 'log10 MIC', 0.60),
  ('N#Cc1ccc(NC(=O)c2noc3ccc(NS(=O)(=O)c4ccccc4)cc23)c(C(=O)O)c1', 'SAUR 9218', 'log10 MIC', -0.90),
  ('C=CCn1c(C(=O)Nc2ccc(Br)cc2C(=O)O)cc2ccccc21', 'SAUR 9218', 'log10 MIC', 0.90),
  ('Cc1cccc(CC(=O)Nc2cccc3cc(C(=O)Nc4ccc(C#N)cc4C(=O)O)[nH]c23)c1', 'SAUR 9218', 'log10 MIC', -0.90),
  ('N#Cc1ccc(NC(=O)c2cc3cccc(NC(=O)c4cc(-c5ccccc5)on4)c3[nH]2)c(C(=O)O)c1', 'SAUR 9218', 'log10 MIC', 0.00),
  ('CS(=O)(=O)Nc1ccc2c(C(=O)Nc3ccc(C#N)cc3C(=O)O)noc2c1', 'SAUR 9218', 'log10 MIC', 0.30),
  ('CC(=O)Nc1ccc2onc(C(=O)Nc3ccc(C#N)cc3C(=O)O)c2c1', 'SAUR 9218', 'log10 MIC', 0.30),
  ('N#Cc1ccc(NC(=O)c2cc3cc(-c4ccccc4)oc3cn2)c(C(=O)O)c1', 'SAUR 9218', 'log10 MIC', 0.90),
  ('N#Cc1ccc(NC(=O)c2[nH]c3c(OCc4ccccc4)cccc3c2Br)c(C(=O)O)c1', 'SAUR 9218', 'log10 MIC', -0.30),
  ('N#Cc1ccc(NC(=O)c2noc3cc(NS(=O)(=O)c4ccccc4)ccc23)c(C(=O)O)c1', 'SAUR 9218', 'log10 MIC', 0.00),
  ('N#Cc1ccc(-c2cnc(C(=O)Nc3ccc(Br)cc3C(=O)O)o2)cc1', 'SAUR 9218', 'log10 MIC', 0.90),
  ('N#Cc1ccc(NC(=O)c2noc3c2CN(C(=O)OCc2ccccc2)CC3)c(C(=O)O)c1', 'SAUR 9218', 'log10 MIC', -0.30);

====

System: SAUR 9218
Assay procedure: MIC Test Method, standard agar dilution
Type: cell-based
Condition label: agar dilution, Mueller Hinton agar, incubated overnight at 35° C.; lowest concentration that inhibits visible growth; read-out: SAUR 9218 MIC
Protocol: The in vitro MiCs of test compounds were determined by a standard agar dilution method. A stock drug solution of each analog was prepared in the preferred solvent, usually DMSO:H2O (1:3). Serial 2-fold dilutions of each sample are made using 1.0 ml aliquots of sterile distil]ed water. […] Following incubation the Minimum Inhibitory Concentration (MIC μg/ml), the lowest concentration of drug that inhibits visible growth of the organism, was read and recorded.
Measurement type: MIC (µg/mL)

INSERT INTO results (molecule, target_or_test_system, measurement_type, limit_qualifier, result) VALUES
  ('N#Cc1ccc(NC(=O)c2cc3cccc(NC(=O)Cc4cccs4)c3[nH]2)c(C(=O)O)c1', 'SAUR 9218', 'MIC', '=', 0.5),
  ('O=C(O)c1cc(Br)ccc1NC(=O)c1cc(Cl)cc[n+]1[O-]', 'SAUR 9218', 'MIC', '>', 128),
  ('Cn1cc(C(=O)Nc2ccc(C#N)cc2C(=O)O)c2ccccc21', 'SAUR 9218', 'MIC', '=', 16),
  ('CN(c1ccc(Cl)cc1)S(=O)(=O)c1ccc(C(=O)Nc2ccc(Br)cc2C(=O)O)s1', 'SAUR 9218', 'MIC', '=', 2),
  ('CCCCN(CC#N)S(=O)(=O)c1cc(C(=O)Nc2ccc(C#N)cc2C(=O)O)sc1C', 'SAUR 9218', 'MIC', '=', 64),
  ('N#Cc1ccc(NC(=O)c2cc(-c3ccccc3OC3CCOC3)on2)c(C(=O)O)c1 (stereo not drawn)', 'SAUR 9218', 'MIC', '=', 0.25),
  ('Cn1c(C(=O)Nc2ccc(C#N)cc2C(=O)O)cc2ccc(-c3ccccc3F)cc21', 'SAUR 9218', 'MIC', '=', 0.5),
  ('CC(C)Sc1ccc(C(=O)Nc2ccc(Br)cc2C(=O)O)cn1', 'SAUR 9218', 'MIC', '=', 1),
  ('O=C(Nc1ccc(Br)cc1C(=O)O)c1ccc2c(c1)S(=O)(=O)c1ccccc1C2=O', 'SAUR 9218', 'MIC', '=', 16),
  ('CCN(CC)c1ccc(NS(=O)(=O)c2csc(C(=O)Nc3ccc(Br)cc3C(=O)O)c2C)cc1', 'SAUR 9218', 'MIC', '=', 64),
  ('N#Cc1ccc(NC(=O)c2noc3ccc(S(=O)(=O)N(CCO)CCO)cc23)c(C(=O)O)c1', 'SAUR 9218', 'MIC', '=', 0.5),
  ('O=C(Nc1ccc(Br)cc1C(=O)O)c1cccc(SCc2ccccc2)n1', 'SAUR 9218', 'MIC', '=', 16),
  ('CCCCCCCSc1ccc(C(=O)Nc2ccc(Br)cc2C(=O)O)nn1', 'SAUR 9218', 'MIC', '=', 0.06),
  ('CC(=O)Oc1ccc2c(C(=O)Nc3ccc(C#N)cc3C(=O)O)noc2c1', 'SAUR 9218', 'MIC', '=', 1),
  ('N#Cc1ccc(NC(=O)c2cncc(-c3cnc4ccccc4c3)c2)c(C(=O)O)c1', 'SAUR 9218', 'MIC', '>', 128),
  ('CC(C)CC(=O)Nc1cccc2cc(C(=O)Nc3ccc(C#N)cc3C(=O)O)[nH]c12', 'SAUR 9218', 'MIC', '=', 2),
  ('Cc1ccccc1-c1cc(C(=O)Nc2ccc(I)cc2C(=O)O)no1', 'SAUR 9218', 'MIC', '=', 0.5),
  ('COC(=O)CC(=O)Nc1cccc2cc(C(=O)Nc3ccc(C#N)cc3C(=O)O)[nH]c12', 'SAUR 9218', 'MIC', '=', 4),
  ('CS(=O)(=O)Nc1ccc2onc(C(=O)Nc3ccc(C#N)cc3C(=O)O)c2c1', 'SAUR 9218', 'MIC', '=', 0.5),
  ('CCCCCCSc1cnc(C(=O)Nc2ccc(Br)cc2C(=O)O)cn1', 'SAUR 9218', 'MIC', '=', 0.5),
  ('N#Cc1ccc(NC(=O)c2ccc(-c3ccccc3C(F)(F)F)nn2)c(C(=O)O)c1', 'SAUR 9218', 'MIC', '=', 16),
  ('O=C(O)c1cc(Br)ccc1NC(=O)c1noc2ccc(S(=O)(=O)Nc3ccccc3)cc12', 'SAUR 9218', 'MIC', '=', 0.03),
  ('Cn1c(C(=O)Nc2ccc(C#N)cc2C(=O)O)cc2ccc(NC(=O)c3ccno3)cc21', 'SAUR 9218', 'MIC', '=', 0.5),
  ('Cn1c(C(=O)Nc2cccc3cc(C(=O)Nc4ccc(C#N)cc4C(=O)O)n(C)c23)cc2ccccc21', 'SAUR 9218', 'MIC', '=', 0.125),
  ('CCN(CC)C(=O)C1CCCN(S(=O)(=O)c2cc(C(=O)Nc3ccc(C#N)cc3C(=O)O)sc2C)C1 (stereo not drawn)', 'SAUR 9218', 'MIC', '=', 64),
  ('Cn1c(C(=O)Nc2ccc(C#N)cc2C(=O)O)cc2ccc(NC(=O)c3ccco3)cc21', 'SAUR 9218', 'MIC', '=', 2),
  ('CC(Oc1ccccc1-c1cc(C(=O)Nc2ccc(C#N)cc2C(=O)O)no1)C1CCCCC1 (stereo not drawn)', 'SAUR 9218', 'MIC', '=', 1);

Sourced from patent US20040110802A1
